System: C3H10T1/2 cells
Assay Notes: C3H assay: differentiation of C3H10T1/2 cells by mSHH, measurement of alkaline phosphatase
Type: cell-based, mouse
Measurement Parameters: Mus musculus, C3H 10T1/2; reference compounds run in the C3H assay; read-out: mean IC50
For each of the compounds below, state its IC50.
Give bare numbers, in nM.

Problem: IC50 of CS(=O)(=O)c1ccc(C(=O)Nc2ccc(Cl)c(-c3ccccn3)c2)c(Cl)c1 [Vismodegib, reference compound] on C3H10T1/2 cells?
Result: 6.3

Next:
Problem: IC50 of Cc1c(C(=O)Nc2ccc(N3C[C@@H](C)O[C@@H](C)C3)nc2)cccc1-c1ccc(OC(F)(F)F)cc1 [Sonidegib, reference compound] on C3H10T1/2 cells?
Result: 11

----------
Measurement Target: SMO (Homo sapiens)
Construct: expressed in transfected cells; host or cells: HEK293
Assay Notes: Smoothened (SMO) binding fluorescence polarisation assay (BODIPY-cyclopamine competition)
Measurement Parameters: SMO binding FP assay versus C3H10T1/2 cellular assay
Measured Parameter: Ratio of potency in SMO binding assay to potency in C3H10T1/2 cellular assay
Numbers only.

Sample answers from the record:
Problem: Item under review: Cc1noc(C)c1NC(=O)N1CC(S(=O)(=O)N2CCC(c3nc4ccccc4s3)CC2)C1 . Reported Ratio of potency in SMO binding assay to potency in C3H10T1/2 cellular assay?
Result: 5.0

Problem: Could you do the same for CC(C)(C)C(=O)CN1CC(S(=O)(=O)N2CCC(c3c[nH]c4ncccc34)CC2)C1 , please?
Result: 6.7

Problem: Could you do the same for Cc1noc(C)c1NC(=O)C1CC(S(=O)(=O)N2CCC(c3c[nH]c4ncccc34)CC2)C1 (centres unmarked) , please?
Result: 2.9

Problem: Could you do the same for Cc1ccc2c(C3CCN(S(=O)(=O)C4CN(C(=O)OC(C)(C)C)C4)CC3)c[nH]c2n1 , please?
Result: 3.8

Problem: Could you do the same for O=C(CC(O)(C(F)(F)F)C(F)(F)F)N1CC(S(=O)(=O)N2CCC(c3coc4cccnc34)CC2)C1 , please?
Result: 2.6

Problem: Could you do the same for CC(C)(O)CC(=O)N1CC(S(=O)(=O)N2CCC(c3c[nH]c4ncccc34)CC2)C1 , please?
Result: 3.6

Problem: Could you do the same for CC(C)(C)NC(=O)N1CCC(S(=O)(=O)N2CCC(c3c[nH]c4ncccc34)CC2)CC1 , please?
Result: 20

Query molecule follows.
Problem: Item under review: CC(C)(C)C(=O)CN1CC(S(=O)(=O)N2CCC(c3ccc(Cl)cc3)CC2)C1 . Reported Ratio of potency in SMO binding assay to potency in C3H10T1/2 cellular assay?
Result: 2.5

----------
Measurement Target: SMO (Homo sapiens, UniProt Q99835)
Construct: expressed in transfected cells; host or cells: HEK293
Sequence (Q99835 28-787): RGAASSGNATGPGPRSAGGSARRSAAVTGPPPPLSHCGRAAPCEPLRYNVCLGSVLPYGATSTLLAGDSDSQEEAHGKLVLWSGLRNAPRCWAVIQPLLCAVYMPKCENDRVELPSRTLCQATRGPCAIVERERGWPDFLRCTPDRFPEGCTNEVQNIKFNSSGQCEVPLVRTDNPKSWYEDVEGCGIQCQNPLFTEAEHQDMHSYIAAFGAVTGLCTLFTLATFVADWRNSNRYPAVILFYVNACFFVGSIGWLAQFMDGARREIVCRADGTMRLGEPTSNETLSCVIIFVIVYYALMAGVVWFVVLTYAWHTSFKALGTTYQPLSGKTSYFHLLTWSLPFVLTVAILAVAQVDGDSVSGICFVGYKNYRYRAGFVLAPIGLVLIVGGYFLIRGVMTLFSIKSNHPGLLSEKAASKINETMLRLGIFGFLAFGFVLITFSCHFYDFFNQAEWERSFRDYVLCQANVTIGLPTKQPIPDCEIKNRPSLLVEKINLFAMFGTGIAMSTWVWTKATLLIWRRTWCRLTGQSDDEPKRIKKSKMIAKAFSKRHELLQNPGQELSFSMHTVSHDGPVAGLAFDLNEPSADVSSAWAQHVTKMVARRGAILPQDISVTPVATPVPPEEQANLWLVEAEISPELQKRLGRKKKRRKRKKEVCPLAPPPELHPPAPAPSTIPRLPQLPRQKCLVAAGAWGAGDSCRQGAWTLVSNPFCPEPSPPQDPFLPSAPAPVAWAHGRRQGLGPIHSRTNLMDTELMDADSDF
Assay Notes: Smoothened (SMO) binding fluorescence polarisation assay (BODIPY-cyclopamine competition)
Measurement Parameters: SMO binding FP assay versus C3H10T1/2 cellular assay
Kindly apply the following: condition met if Ratio of potency in SMO binding assay to potency in C3H10T1/2 cellular assay is less than 4, condition not met in every other case.

Problem: In plain terms, does Cc1ccc(S(=O)(=O)n2ccc3c(C4=CCN(S(=O)(=O)C5CCN(C(=O)OC(C)(C)C)CC5)CC4)ncnc32)cc1 come in under 4 for Ratio of potency in SMO binding assay to potency in C3H10T1/2 cellular assay?
Result: condition not met

Problem: Could you do the same for C[C@@H](NC(=O)N1CC(S(=O)(=O)N2CCC(c3coc4cccnc34)CC2)C1)C(F)(F)F , please?
Result: condition met

Next:
Problem: In plain terms, does COc1cnc2[nH]cc(C3CCN(S(=O)(=O)C4CCN(C(=O)OC(C)(C)C)CC4)CC3)c2c1 come in under 4 for Ratio of potency in SMO binding assay to potency in C3H10T1/2 cellular assay?
Result: condition not met

Problem: Could you do the same for O=C([C@H]1C[C@@H](S(=O)(=O)N2CCC(c3c[nH]c4ncccc34)CC2)C1)N1CCOCC1 , please?
Result: condition met

Problem: Could you do the same for CC1(C)COCC(C)(C)N1C(=O)N1CC(S(=O)(=O)N2CCC(c3cnc4occc4c3)CC2)C1 , please?
Result: condition not met

Problem: Could you do the same for COC(=O)[C@H]1C[C@H](S(=O)(=O)N2CCC(c3c[nH]c4ncccc34)CC2)C1 , please?
Result: condition not met

Problem: Could you do the same for O=C(CC(O)(C(F)(F)F)C(F)(F)F)N1CC(S(=O)(=O)N2CCC(c3c[nH]c4ncccc34)CC2)C1 , please?
Result: condition met

----------
Measurement Target: SMO (Homo sapiens)
Construct: expressed in transfected cells; host or cells: HEK293
Assay Notes: Smoothened (SMO) binding fluorescence polarisation assay (BODIPY-cyclopamine competition)
Measurement Parameters: SMO binding FP assay versus C3H10T1/2 cellular assay
Measured Parameter: Ratio of potency in SMO binding assay to potency in C3H10T1/2 cellular assay
One number for each entry.

Problem: Item under review: CC(C)(C)NC(=O)N1CC(S(=O)(=O)N2CCC(c3ccc(Cl)cc3)CC2)C1 [Compound 319] . Reported Ratio of potency in SMO binding assay to potency in C3H10T1/2 cellular assay?
Result: 2.9

Next:
Problem: Item under review: CS(=O)(=O)c1ccc(C(=O)Nc2ccc(Cl)c(-c3ccccn3)c2)c(Cl)c1 [Vismodegib, reference compound] . Reported Ratio of potency in SMO binding assay to potency in C3H10T1/2 cellular assay?
Result: 2.2
